tested on: Pimephales promelas; assay: 96 h LC50 (-log10 mol/L); higher = more toxic
Entry class follows 96 h LC50 (-log10 mol/L): low end: < 3; middle: ≥ 3 and < 5; high end: ≥ 5

Using the reported 96 h LC50 (-log10 mol/L), which band applies to CNC(=O)Oc1cccc2c1OC(C)(C)C2 ?
high end

Using the reported 96 h LC50 (-log10 mol/L), which band applies to Cc1ccc([N+](=O)[O-])c(O)c1 ?
middle

Using the reported 96 h LC50 (-log10 mol/L), which band applies to CC(Cl)(Cl)C(=O)O ?
low end

Using the reported 96 h LC50 (-log10 mol/L), which band applies to ClC(Cl)=C(Cl)Cl ?
middle

Using the reported 96 h LC50 (-log10 mol/L), which band applies to CC(C)=CCC/C(C)=C/CN(C/C=C(\C)CCC=C(C)C)CCO ?
high end

Using the reported 96 h LC50 (-log10 mol/L), which band applies to CCCCCCCCCCCCN ?
high end

Using the reported 96 h LC50 (-log10 mol/L), which band applies to CCCSP(=O)(OCC)Oc1ccc(Br)cc1Cl (stereo unspecified) ?
high end

Using the reported 96 h LC50 (-log10 mol/L), which band applies to Cc1ncc[nH]1 ?
low end

Using the reported 96 h LC50 (-log10 mol/L), which band applies to Cc1cccc(O)c1 ?
middle

Using the reported 96 h LC50 (-log10 mol/L), which band applies to O=C(Cl)c1ccccc1 ?
middle
